- assay_name: Vitamin content of solution (C) in polyolefin holders after autoclaving and storage at 40° C. for four months, measured through HPLC (Example 3)
- Format: physicochemical
- condition_label: holder No. 3, polypropylene, 30 μm, resin 7.4 cm^3 per μmol vitamin D; after sterilization
property_name: Vitamin content (%) of initially incorporated amount
Output spec: scalar in %, unitless text.

Check the records and state Vitamin content (%) of initially incorporated amount for `O=C1O[C@H]([C@@H](O)CO)C(O)=C1O` 97.3

Look up and state reported Vitamin content (%) of initially incorporated amount for Cc1cc2nc3c(=O)[nH]c(=O)nc-3n(C[C@H](O)[C@H](O)[C@H](O)COP(=O)(O)O)c2cc1C [Vitamin B2, sodium riboflavin phosphate] 95.4

Indicate its recorded Vitamin content (%) of initially incorporated amount; the compound in question is `C=C1CC[C@H](O)C/C1=C/C=C1\CCC[C@]2(C)[C@@H]([C@H](C)CCCC(C)C)CC[C@@H]12` 96.2

Indicate the recorded Vitamin content (%) of initially incorporated amount value for this compound: CCCCCCCCCCCCCCCC(=O)OC/C=C(C)/C=C/C=C(C)/C=C/C1=C(C)CCCC1(C)C [Vitamin A, retinol palmitate] 90.7

For the compound `CC1=C(C/C=C(\C)CCC[C@H](C)CCC[C@H](C)CCCC(C)C)C(=O)c2ccccc2C1=O` , give its reported Vitamin content (%) of initially incorporated amount. 96.1

Give the value of Vitamin content (%) of initially incorporated amount reported for the following: CC(=O)Oc1c(C)c(C)c2c(c1C)CCC(C)(CCC[C@H](C)CCC[C@H](C)CCCC(C)C)O2 (stereo partly drawn) [Vitamin E, tocopherol acetate] 97.6

====

- assay_name: Vitamin contents in transfusion fluid containers of Examples 4 and 5 after autoclaving and 40° C. four-month storage, bioassay (vitamin B12, biotin) or HPLC (other vitamins)
- Type: physicochemical
- condition_label: Example 4 transfusion fluid container; immediately after sterilization
Counter-ions that a name gives are not always drawn.
So I've got a bunch of compounds here, and I need their Vitamin content, percentage (%) of the initially incorporated amount values.
Numbers only here, please. The scale is %.

Using known records, supply Vitamin content, percentage (%) of the initially incorporated amount for `O=C(O)CCCC[C@@H]1SC[C@@H]2NC(=O)N[C@@H]21` 100.4

Tell me Vitamin content, percentage (%) of the initially incorporated amount reported for CC(=O)Oc1c(C)c(C)c2c(c1C)CCC(C)(CCC[C@H](C)CCC[C@H](C)CCCC(C)C)O2 (some centres unmarked) [Vitamin E, tocopherol acetate] 94.9

// fetch Vitamin content, percentage (%) of the initially incorporated amount given entry `O=C1O[C@H]([C@@H](O)CO)C(O)=C1O` 98.7

Look up and state reported Vitamin content, percentage (%) of the initially incorporated amount for Cc1cc2nc3c(=O)[nH]c(=O)nc-3n(C[C@H](O)[C@H](O)[C@H](O)COP(=O)(O)O)c2cc1C [Vitamin B2, sodium riboflavin phosphate] 86.5

Kindly indicate its recorded Vitamin content, percentage (%) of the initially incorporated amount. Item: Cc1ncc(C[n+]2csc(CCO)c2C)c(N)n1 [Thiamin hydrochloride (B1), thiamin hydrochloride] 93.8

====

- assay_name: Vitamin content of solution (C) in polyolefin holders after autoclaving and storage at 40° C. for four months, measured through HPLC (Example 3)
- Assay type: physicochemical
- condition_label: holder No. 4, polyethylene, 250 μm, resin 123.2 cm^3 per μmol vitamin D; after sterilization
Task for the reader: assign each of the following compounds its reported Vitamin content (%) of initially incorporated amount.
// note: answer is a bare numeric in %

Name the recorded Vitamin content (%) of initially incorporated amount of the compound listed here: Cc1cc2nc3c(=O)[nH]c(=O)nc-3n(C[C@H](O)[C@H](O)[C@H](O)COP(=O)(O)O)c2cc1C [Vitamin B2, sodium riboflavin phosphate] 94.6

Output Vitamin content (%) of initially incorporated amount of `O=C1O[C@H]([C@@H](O)CO)C(O)=C1O` 97.5

Using the record for `CC1=C(C/C=C(\C)CCC[C@H](C)CCC[C@H](C)CCCC(C)C)C(=O)c2ccccc2C1=O` , state its measured Vitamin content (%) of initially incorporated amount. 94.3

Give recorded Vitamin content (%) of initially incorporated amount. CC(=O)Oc1c(C)c(C)c2c(c1C)CCC(C)(CCC[C@H](C)CCC[C@H](C)CCCC(C)C)O2 (stereo partly drawn) [Vitamin E, tocopherol acetate] 98.2

Consider the compound `C=C1CC[C@H](O)C/C1=C/C=C1\CCC[C@]2(C)[C@@H]([C@H](C)CCCC(C)C)CC[C@@H]12` and give its recorded Vitamin content (%) of initially incorporated amount. 89.8

Please supply the value of reported Vitamin content (%) of initially incorporated amount for the item CCCCCCCCCCCCCCCC(=O)OC/C=C(C)/C=C/C=C(C)/C=C/C1=C(C)CCCC1(C)C [Vitamin A, retinol palmitate] 89.1

====

- assay_name: Vitamin content of solution (C) in polyolefin holders after autoclaving and storage at 40° C. for four months, measured through HPLC (Example 3)
- Assay type: physicochemical
- condition_label: holder No. 5, polypropylene, 250 μm, resin 123.2 cm^3 per μmol vitamin D; 40° C., 4 months
Would you kindly list Vitamin content (%) of initially incorporated amount for each of these molecules?
The reply should contain only the number, in %.

In one line, give reported Vitamin content (%) of initially incorporated amount of the entry CCCCCCCCCCCCCCCC(=O)OC/C=C(C)/C=C/C=C(C)/C=C/C1=C(C)CCCC1(C)C [Vitamin A, retinol palmitate] . 77.8

Complete the entry with Vitamin content (%) of initially incorporated amount for CC(=O)Oc1c(C)c(C)c2c(c1C)CCC(C)(CCC[C@H](C)CCC[C@H](C)CCCC(C)C)O2 (stereo partly drawn) [Vitamin E, tocopherol acetate] 95.3

State its Vitamin content (%) of initially incorporated amount: `O=C1O[C@H]([C@@H](O)CO)C(O)=C1O` 93.1

Find the measured Vitamin content (%) of initially incorporated amount of Cc1cc2nc3c(=O)[nH]c(=O)nc-3n(C[C@H](O)[C@H](O)[C@H](O)COP(=O)(O)O)c2cc1C [Vitamin B2, sodium riboflavin phosphate] and report it. 91.2

Provide only the value of recorded Vitamin content (%) of initially incorporated amount for `CC1=C(C/C=C(\C)CCC[C@H](C)CCC[C@H](C)CCCC(C)C)C(=O)c2ccccc2C1=O` 88.7

Determine its reported Vitamin content (%) of initially incorporated amount: `C=C1CC[C@H](O)C/C1=C/C=C1\CCC[C@]2(C)[C@@H]([C@H](C)CCCC(C)C)CC[C@@H]12` 69.1

====

- assay_name: Vitamin contents in transfusion fluid containers of Examples 4 and 5 after autoclaving and 40° C. four-month storage, bioassay (vitamin B12, biotin) or HPLC (other vitamins)
- Assay type: physicochemical
- condition_label: Example 5 transfusion fluid container; 40° C., 4 months
Where a name gives a salt, the structure may show the parent alone.
Task for the reader: assign each of the following compounds its reported Vitamin content, percentage (%) of the initially incorporated amount.
State just the number; it will be interpreted in %.

Return Vitamin content, percentage (%) of the initially incorporated amount (reported value) for this compound: `O=C1O[C@H]([C@@H](O)CO)C(O)=C1O` 97.5

Give recorded Vitamin content, percentage (%) of the initially incorporated amount. Cc1ncc(C[n+]2csc(CCO)c2C)c(N)n1 [Thiamin hydrochloride (B1), thiamin hydrochloride] 86.6

For the compound `C=C1CC[C@H](O)C/C1=C/C=C1\CCC[C@]2(C)[C@@H]([C@H](C)CCCC(C)C)CC[C@@H]12` , report Vitamin content, percentage (%) of the initially incorporated amount. 89.6

Please list Vitamin content, percentage (%) of the initially incorporated amount recorded for the compound Cc1ncc(CO)c(CO)c1O.Cl [Pyridoxine hydrochloride (B6), pyridoxine hydrochloride] 99.8

Quickly give me recorded Vitamin content, percentage (%) of the initially incorporated amount for Cc1cc2nc3c(=O)[nH]c(=O)nc-3n(C[C@H](O)[C@H](O)[C@H](O)COP(=O)(O)O)c2cc1C [Vitamin B2, sodium riboflavin phosphate] 84.3

Give the reported value of Vitamin content, percentage (%) of the initially incorporated amount for this record: CC(=O)Oc1c(C)c(C)c2c(c1C)CCC(C)(CCC[C@H](C)CCC[C@H](C)CCCC(C)C)O2 (stereo partly shown) [Vitamin E, tocopherol acetate] 94.8

Please indicate Vitamin content, percentage (%) of the initially incorporated amount recorded for `CC1=C(C/C=C(\C)CCC[C@H](C)CCC[C@H](C)CCCC(C)C)C(=O)c2ccccc2C1=O` 95.4

====

Record form. Attribute: Vitamin content (%) of initially incorporated amount. Fill in for each entry.
- assay_name: Vitamin content of solution (C) in polyolefin holders after autoclaving and storage at 40° C. for four months, measured through HPLC (Example 3)
- Type: physicochemical
- condition_label: holder No. 3, polypropylene, 30 μm, resin 7.4 cm^3 per μmol vitamin D; 40° C., 4 months
Number in %, nothing else.

Given `C=C1CC[C@H](O)C/C1=C/C=C1\CCC[C@]2(C)[C@@H]([C@H](C)CCCC(C)C)CC[C@@H]12` , respond with its Vitamin content (%) of initially incorporated amount. 85.8

Return the recorded Vitamin content (%) of initially incorporated amount value; entry: CCCCCCCCCCCCCCCC(=O)OC/C=C(C)/C=C/C=C(C)/C=C/C1=C(C)CCCC1(C)C [Vitamin A, retinol palmitate] 81.2

Entry CC(=O)Oc1c(C)c(C)c2c(c1C)CCC(C)(CCC[C@H](C)CCC[C@H](C)CCCC(C)C)O2 (stereo partly drawn) [Vitamin E, tocopherol acetate] needs its Vitamin content (%) of initially incorporated amount filled in; supply it. 97.3

Look up Vitamin content (%) of initially incorporated amount of `O=C1O[C@H]([C@@H](O)CO)C(O)=C1O` and report it. 94.2

Quote Vitamin content (%) of initially incorporated amount reported for `CC1=C(C/C=C(\C)CCC[C@H](C)CCC[C@H](C)CCCC(C)C)C(=O)c2ccccc2C1=O` please. 91.3

Input Cc1cc2nc3c(=O)[nH]c(=O)nc-3n(C[C@H](O)[C@H](O)[C@H](O)COP(=O)(O)O)c2cc1C [Vitamin B2, sodium riboflavin phosphate] , output reported Vitamin content (%) of initially incorporated amount. 91.0
